Several reports have described Ki for UniProt:P19327; a selection of those results is presented here.

{"molecule": "O=C(N[C@H]1CCN(CCc2ccc(F)cc2)C1)C12CC3CC(CC(C3)C1)C2", "Ki": "79 nM"}
{"molecule": "O=C(NC1CCN(CCc2ccc(C(F)(F)F)cc2)C1)C12CC3CC(CC(C3)C1)C2 (stereo not given)", "Ki": "92 nM"}
{"molecule": "COc1ccc(OC[C@H]2CN(C)CC[C@@H]2c2ccccc2)cc1", "Ki": "3160 nM"}
{"molecule": "CCCN(CCC)C[C@@H]1C[C@@H]1c1cccc(O)c1", "Ki": "58 nM"}
{"molecule": "CCCN(CCC)C[C@@H]1C[C@@H]1c1ccccc1OC", "Ki": "998 nM"}
{"molecule": "O=C(N[C@@H]1CCN(CCc2ccccc2)C1)C12CC3CC(CC(C3)C1)C2", "Ki": "0.17 nM"}
{"molecule": "COc1cc(OC)c(C(=O)CCCCN2CCC3(CC2)NC(=O)NC3=O)cc1NS(=O)(=O)c1ccc(C(F)(F)F)cc1", "Ki": "> 10000 nM"}
{"molecule": "O=c1n(CCCCNCCc2ccco2)c(O)c2n1CCC2", "Ki": "> 1000 nM"}
{"molecule": "c1ccc2c(c1)CCC2CCN1CCN(c2cccc3c2OCCO3)CC1 (stereo not given)", "Ki": "1.51 nM"}
{"molecule": "O=c1n(CCCCN2CCN(c3ccc([N+](=O)[O-])cc3)CC2)c(O)c2n1CCCC2", "Ki": "> 1000 nM"}
